Set-up: species or system rhesus macaques (Macaca mulatta)
details: rhesus monkey, in vivo, po, 20 mg/kg
measured-metric: Cmax
State the value, then name its unit.

Lab book: Cmax of CNC(=O)c1ccc(-c2cnc3cnc(C(=O)N(C)c4ccc(Cl)cc4)cn23)cc1 noted as 4.31 µM
